Biological target: type-VI B porcine pancreatic α-amylase (Sus scrofa)
Construct: performed using type-VI B porcine pancreatic α-amylase, with starch as a substrate; from tissue; host or cells: porcine pancreas
Sequence (P00690 16-511): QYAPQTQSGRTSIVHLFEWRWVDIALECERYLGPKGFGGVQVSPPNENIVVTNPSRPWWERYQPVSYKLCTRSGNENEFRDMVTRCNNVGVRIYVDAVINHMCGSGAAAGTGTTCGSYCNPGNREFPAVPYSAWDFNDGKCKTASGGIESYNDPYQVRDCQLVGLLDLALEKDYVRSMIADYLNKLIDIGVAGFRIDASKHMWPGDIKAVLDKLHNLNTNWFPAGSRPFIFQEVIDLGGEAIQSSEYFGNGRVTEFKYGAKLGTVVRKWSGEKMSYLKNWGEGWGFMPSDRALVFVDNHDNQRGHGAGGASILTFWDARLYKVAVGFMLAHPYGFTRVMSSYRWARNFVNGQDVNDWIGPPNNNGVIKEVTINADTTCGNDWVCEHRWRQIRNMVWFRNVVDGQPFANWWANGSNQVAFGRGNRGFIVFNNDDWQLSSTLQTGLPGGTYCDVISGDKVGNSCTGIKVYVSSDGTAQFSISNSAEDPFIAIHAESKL
Assay: α-amylase inhibition assay (starch substrate, DNS reagent)
Assay type: biochemical
Conditions: porcine pancreatic enzyme, 25 °C, read-out: IC50 (mean ± SD) α-Amylase (converted)
# label = 1 (yes) if IC50 < 80 µM else 0 (no)

# molecule, classification
rows = [
    ("COc1ccc(-c2nc3cc(C(=O)/C=C/c4ccccc4Cl)ccc3n2C)cc1OC [Compound 7a]", "0 (no)"),
    ("COc1ccccc1/C=C/C(=O)c1ccc2c(c1)nc(-c1cc(OC)c(OC)c(OC)c1)n2C [Compound 7i]", "1 (yes)"),
    ("COc1ccc(/C=C/C(=O)c2ccc3c(c2)nc(-c2cc(OC)c(OC)c(OC)c2)n3C)cc1OC [Compound 7k]", "0 (no)"),
    ("COc1cc(-c2nc3cc(C(=O)/C=C/c4ccc(C)cc4)ccc3n2C)cc(OC)c1OC [Compound 7h]", "1 (yes)"),
    ("COc1ccc(/C=C/C(=O)c2ccc3c(c2)nc(-c2cc(OC)c(OC)c(OC)c2)n3C)cc1 [Compound 7j]", "0 (no)"),
    ("COc1cc(/C=C/C(=O)c2ccc3c(c2)nc(-c2cc(OC)c(OC)c(OC)c2)n3C)cc(OC)c1OC [Compound 7l]", "1 (yes)"),
    ("COc1cc(-c2nc3cc(C(=O)/C=C/c4ccccc4Cl)ccc3n2C)cc(OC)c1OC [Compound 7g]", "1 (yes)"),
    ("COc1ccc(-c2nc3cc(C(=O)/C=C/c4cc(OC)c(OC)c(OC)c4)ccc3n2C)cc1OC [Compound 7f]", "1 (yes)"),
]

###

Target: type-VI B porcine pancreatic α-amylase (Sus scrofa)
Construct: performed using type-VI B porcine pancreatic α-amylase, with starch as a substrate; from tissue; host or cells: porcine pancreas
Sequence (P00690 16-511): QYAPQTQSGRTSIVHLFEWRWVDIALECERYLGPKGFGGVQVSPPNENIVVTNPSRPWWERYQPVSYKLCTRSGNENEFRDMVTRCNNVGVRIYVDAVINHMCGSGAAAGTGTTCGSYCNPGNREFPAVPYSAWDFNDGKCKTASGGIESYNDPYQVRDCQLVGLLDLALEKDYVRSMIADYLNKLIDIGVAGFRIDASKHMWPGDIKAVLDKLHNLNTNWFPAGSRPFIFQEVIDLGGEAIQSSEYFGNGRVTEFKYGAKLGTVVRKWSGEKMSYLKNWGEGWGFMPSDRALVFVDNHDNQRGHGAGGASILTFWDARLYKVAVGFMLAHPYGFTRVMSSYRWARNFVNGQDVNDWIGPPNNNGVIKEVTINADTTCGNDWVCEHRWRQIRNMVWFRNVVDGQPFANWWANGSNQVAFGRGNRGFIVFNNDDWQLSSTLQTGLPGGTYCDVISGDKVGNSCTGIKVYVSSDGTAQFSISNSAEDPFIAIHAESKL
Assay: α-amylase inhibition assay (starch substrate, DNS reagent)
Format: biochemical
Settings: porcine pancreatic enzyme, 25 °C, read-out: IC50 (mean ± SD) α-Amylase (converted)
Description: The in vitro enzyme inhibition assays for the two enzymes, i.e., α-glucosidase and α-amylase, were performed according to the previous studies. The α-amylase inhibition activity was performed using type-VI B porcine pancreatic α-amylase, with starch as a substrate. The enzyme was dissolved in sodium phosphate buffer and the test compound was added at different concentrations. […] The resulting mixture was diluted and absorbance was measured at 540 nm using a microplate spectrophotometer.

# smiles, test system, readout unit, IC50
records = [
    ("COc1ccccc1/C=C/C(=O)c1ccc2c(c1)nc(-c1ccc(OC)c(OC)c1)n2C", "type-VI B porcine pancreatic α-amylase (Sus scrofa)", "µM", 91.9),
    ("COc1ccc(/C=C/C(=O)c2ccc3c(c2)nc(-c2ccc(OC)c(OC)c2)n3C)cc1OC", "type-VI B porcine pancreatic α-amylase (Sus scrofa)", "µM", 75.1),
    ("COc1ccc(-c2nc3cc(C(=O)/C=C/c4ccc(C)cc4)ccc3n2C)cc1OC", "type-VI B porcine pancreatic α-amylase (Sus scrofa)", "µM", 81),
    ("COc1ccc(/C=C/C(=O)c2ccc3c(c2)nc(-c2ccc(OC)c(OC)c2)n3C)cc1", "type-VI B porcine pancreatic α-amylase (Sus scrofa)", "µM", 85),
]
